Attribution: PubChem BioAssay

- procedure-text: probe aLefty2 binding to arrayed compounds – biochemical, biotinylated probe, 635/667 nm fluorescence, primary screen (AID 1094);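 note: score merges spot fluorescence near 667 nm with spot signal-to-noise ratio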
- run-parameters: small-molecule microarray, higher = more signal
Measured composite z-score, listed per entry.

| compound | composite z-score |
| --- | --- |
| COCCOC(=O)N1C(=O)[C@@]2(c3cc(C#CCCO)ccc31)[C@H](c1ccccc1OCCO)N1[C@H](c3ccccc3)[C@H](c3ccccc3)OC(=O)[C@H]1[C@@H]2C(N)=O | -0.123 |
| C=CCNC(=O)[C@H]1[C@@H]2C(=O)O[C@@H](c3ccccc3)[C@@H](c3ccccc3)N2[C@@H](c2ccc(OCCO)cc2)[C@]12C(=O)Nc1ccccc12 | -0.0785 |
| COc1ccc(C(O)C2C=CC3C(=O)N(c4ccccc4)C(=O)C3N2Nc2ccc(C#N)cc2)cc1OCc1ccccc1 (stereo not given) | 0.455 |
| O=C(NC1CC1)[C@@H]1c2ccccc2C(=O)N(Cc2ccc(OC(F)(F)F)cc2)[C@H]1c1ccc(CO)cc1 | -0.0943 |
| COc1ccc(C(=O)Nc2ccc3c(c2)[C@@]2(O[C@H](CCO)[C@@H]([Si](C)(C)c4ccc(OC)cc4)[C@@H]2C)C(=O)N3Cc2ccccc2)cc1 | -0.0124 |
| COC(=O)[C@@]1(Cc2ccc(OC)cc2)[C@H]2c3cc(C(=O)N4CCCC4)n(Cc4ccc(C(F)(F)F)nc4)c3C[C@H]2CN1C(=O)c1ccccc1 | 0.248 |
| O=C(N1CCOCC1)[C@@]1(Cc2ccccc2)COC(c2ccc(OCCCO)cc2)=N1 | 0.588 |
| CN(C)CCCNC(=O)[C@@]1(Cc2ccccc2I)c2ccccc2C(=O)N(C2CCCCC2)[C@H]1c1ccc(CO)cc1 | 0.446 |
| CO[C@H]1O[C@H](CO)[C@@H](OC(=O)Nc2ccccc2)[C@H](OC(=O)Nc2ccccc2)[C@H]1OC(=O)Nc1ccccc1 | -0.134 |
| O=C1C=C(c2ccccc2)C(=O)C2=C1CC([C@H]1Oc3ccccc3S(=O)(=O)N3CCC[C@@H]13)=CC2 | -0.183 |
| C=C(COC)/C(=C/C[C@H](OC(C)=O)c1ccccc1OCCO)c1cc(C(=O)OC)ccc1OC | -0.0928 |
| C=CCN1Cc2ccccc2[C@H]2OC(c3ccc(OCCCO)cc3)=N[C@@]2(CCS(=O)(=O)c2ccccc2)C1=O | 0.319 |
| COC(=O)[C@@]1(Cc2ccc(OC)cc2)[C@H]2c3cc(C(=O)N4CCCC4)n(Cc4c(CO)[nH]cc(C)c4=O)c3C[C@H]2CN1C(=O)c1ccccc1 | 0.601 |
| COC(=O)C[C@H]1O[C@@]2(C[C@@H]1[Si](C)(C)C)C(=O)N(C)c1ccccc12 | -0.15 |
| COCCOC(=O)N1C(=O)[C@@]2(c3ccccc31)[C@H](C(=O)N1CCN(c3ncccn3)CC1)[C@H]1C(=O)O[C@H](c3ccccc3)[C@H](c3ccccc3)N1[C@@H]2c1ccccc1OCCO | -0.0366 |
| COc1ccccc1CN1C(=O)c2ccccc2[C@](Cc2ccccc2I)(C(=O)NCC(C)C)[C@@H]1c1ccc(CO)cc1 | 0.103 |
| [N-]=[N+]=Nc1ccccc1[C@@H]1OC(c2ccc(OCCCO)cc2)=N[C@]1(Cc1ccccc1)C(=O)NCCN1CCOCC1 | 0.0787 |
| C=C(C)[C@@H]1CC=C(C(O)C2C=CC3C(=O)N(C)C(=O)C3N2Nc2ccc([N+](=O)[O-])cc2[N+](=O)[O-])CC1 (stereo not given in full) | 0.519 |
| NC(=O)N1C(=O)C2C(C1=O)C1C=C(CCCO)C2C(C2CC2)N1Cc1sc2ccccc2c1Cl (stereo not given) | 0.0819 |
| CN1C(=O)C2C(C3CC3)C=C3CN(Cc4cccc(Cl)c4)[C@@H]([C@@H](O)Cc4ccccc4)C3C2C1=O (stereo not given in full) | -0.126 |
| O=C(O)[C@H](Cc1ccccc1)n1cc(C2(O)CCCCC2)nn1 | -0.137 |
| CC(C)NC(=O)[C@@]1(c2ccc([N+](=O)[O-])cc2)CC(=O)N(CC23CC4CC(CC(C4)C2)C3)[C@@H]1c1ccc(CO)cc1 | 0.707 |
| CC(C)N1C(=O)C[C@@](C(=O)NCCN2CCOCC2)(c2ccc([N+](=O)[O-])cc2)[C@H]1c1ccc(CO)cc1 | -0.001 |
| CN(C)CCCNC(=O)[C@@H]1c2ccccc2C(=O)N(Cc2ccccc2C(F)(F)F)[C@H]1c1ccc(CO)cc1 | 0.0518 |
| N#Cc1ccc(NN2C(C(O)C3CC=CCC3)C=CC3C(=O)N(c4ccccc4)C(=O)C32)cc1 (stereo not given) | -0.0873 |
| O=C(NCCN1CCOCC1)[C@@H]1c2ccccc2C(=O)N(Cc2ccc(OC(F)(F)F)cc2)[C@H]1c1ccc(CO)cc1 | -0.0766 |
| C=C(CCCC)/C(=C/C[C@H](OC(=O)c1ccncc1)c1ccccc1OCCO)c1cc(C(=O)OC)ccc1OC | -0.0942 |
| O=C1NC(=O)C2C1C=CC(C(O)c1ccc([N+](=O)[O-])cc1)N2Nc1ccccn1 (stereo not given) | -0.0218 |
| COc1ccc(C(O)C2C=CC3C(=O)N(c4ccccc4)C(=O)C3N2Nc2ccc([N+](=O)[O-])cc2)c2ccccc12 (stereo not given) | 0.0798 |
| C=C(CCCC)/C(=C/C[C@H](OC(=O)c1ccncc1)c1cccc(OCCO)c1)c1cnc2ccccc2c1 | -0.121 |
